- Target Or System: human μ-opiate receptor (Homo sapiens)
- Sequence (P35372 whole entry): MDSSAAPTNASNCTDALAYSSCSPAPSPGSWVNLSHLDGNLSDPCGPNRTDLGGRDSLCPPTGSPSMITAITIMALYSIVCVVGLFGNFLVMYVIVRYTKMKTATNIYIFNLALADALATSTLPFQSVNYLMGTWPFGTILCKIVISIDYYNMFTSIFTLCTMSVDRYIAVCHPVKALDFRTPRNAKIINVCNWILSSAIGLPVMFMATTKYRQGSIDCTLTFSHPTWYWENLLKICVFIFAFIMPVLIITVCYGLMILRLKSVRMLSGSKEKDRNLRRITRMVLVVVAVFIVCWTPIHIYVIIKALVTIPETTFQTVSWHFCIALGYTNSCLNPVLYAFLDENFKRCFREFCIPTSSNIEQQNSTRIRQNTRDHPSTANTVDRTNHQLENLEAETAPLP
- Assay Procedure: [35S]GTP-γ-S functional binding assay, CHO hMOR cells
# Lookup of reported EC50 keyed by entry

{"columns": ["Smiles String", "EC50"],
 "data": [
  ["CC[C@@]12CCN(C)C[C@@H]1Oc1ccc(O)cc12", "241 nM"],
  ["CC[C@@]12CCNC[C@@H]1Oc1ccc(O)cc12", "150 nM"],
  ["CC[C@@]12CCN(C[C@@H](O)c3ccccc3)C[C@@H]1Oc1ccc(O)cc12", "560 nM"],
  ["CC[C@@]12CCN(CCc3ccccc3)C[C@@H]1Oc1ccc(O)cc12", "24 nM"],
  ["CC[C@@]12CCN(C[C@H](O)c3ccccc3)C[C@@H]1Oc1ccc(O)cc12", "480 nM"]
]}
